Tested on: PPARg:RXRa 30nM:10nM, anti-RXR (NR concentration 30 nM, RXRa partner concentration 10 nM)
Measurement Protocol: PBM binding z-score (relative to random genomic background probes); higher = stronger binding; sequences stand for … in GC…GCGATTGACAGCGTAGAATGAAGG
Mark NO for PBM binding z-score values under 0.3, and YES for everything at or above.

Please review the entries below; each comes with its answer.
GGAACGAGAGCAAGTTGATAGCAGAGTTTGATGG ... NO
GATACAGGGTCAAGGCCAGAGAACGCGTATTGAT ... YES
GCGCGGAGGACAAGGTCAGAGCTTTGTCCGTAGA ... NO

Then there is this sequence:
q: # check: PBM binding z-score of "AGAACGAGGTCAATGAGTTGATAGCACGGGTGGC" is greater than or equal to 0.3
a: YES
